Biological target: T1, human DLL3 (delta-like protein 3 isoform 1 precursor) expressed on Ba/F3 cells (human, UniProt Q9NYJ7 27-618)
T1 construct: Full-length cDNA stably transfected into mouse Ba/F3 cells; also called human DLL3 expressing Ba/F3
T1 sequence: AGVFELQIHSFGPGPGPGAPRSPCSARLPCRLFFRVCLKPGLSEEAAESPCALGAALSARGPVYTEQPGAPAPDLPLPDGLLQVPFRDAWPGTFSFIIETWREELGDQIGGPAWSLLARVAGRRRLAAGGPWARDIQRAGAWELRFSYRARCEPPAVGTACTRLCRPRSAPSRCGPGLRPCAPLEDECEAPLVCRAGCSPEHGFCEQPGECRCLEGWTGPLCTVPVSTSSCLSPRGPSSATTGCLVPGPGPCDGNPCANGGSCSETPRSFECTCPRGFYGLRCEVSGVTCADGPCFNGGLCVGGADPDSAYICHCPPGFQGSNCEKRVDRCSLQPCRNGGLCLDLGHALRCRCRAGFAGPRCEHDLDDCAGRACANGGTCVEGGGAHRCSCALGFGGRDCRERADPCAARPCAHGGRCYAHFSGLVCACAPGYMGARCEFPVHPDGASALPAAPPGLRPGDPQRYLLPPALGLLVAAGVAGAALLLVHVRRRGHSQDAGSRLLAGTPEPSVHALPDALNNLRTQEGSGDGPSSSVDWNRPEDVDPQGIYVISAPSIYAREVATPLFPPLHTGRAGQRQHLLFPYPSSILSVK
Experiment: cell ELISA, B-cell culture supernatants on immobilized hDLL3/BaF_H3 cells

{"columns": ["binder", "binding result"],
 "data": [
  ["DLA0126 (antibody, human IgG1, V domains shown, Rabbit B-cell clone, screened as B-cell culture supernatant) VH: QSVEESGGRLVTPGTPLTLTCTVSGFSLSRYAMSWVRQAPGKGLEWIGIITGGGDPYYASWAKGRFTISKTSTTMDLKITSPTTEDTATYFCARMIGSEYASSSEYYDAFDPWGPGTLVTVSS VL: ALVMTQTPSSVSAAVGGTVTINCQASQNIYSNLAWYQQKPGQRPKLLIYGASNLESGVPSRFKGSGSGTEYTLTISDLECDDAAIYYCQSAYYTTSVDVLYPFGGGTEVVVK", "binds"],
  ["DLA0106 (antibody, human IgG1, V domains shown, Rabbit B-cell clone, screened as B-cell culture supernatant) VH: QSVEESGGRLVTPGTPLTLTCTVSGIDLSSYAMSWVRQAPGKGLEWIGIISNSGSGFYANWAKGRFTISKTSSTTVDVKISSPTTEDTATYFCARVFDADSSGYYYYGMDPWGPGTLVTVSS VL: DVVMTQTPSSVSEPVGGTVTIKCQASEDIESYLAWYQQKPGQPPKLLIYAASTLASGVSSRFRGSGSGTEYTLTISDLECADAATYYCQSTYYDSSGVDWAFGGGTEVVVK", "binds"],
  ["DLA0841 (antibody, human IgG1, V domains shown, Rabbit B-cell clone, screened as B-cell culture supernatant) VH: QEQLVESGGGLVQPEGSLTLTCTASGFSFSSSYDMCWVRQAPGKGPEWIACIYTGDGSTDYASWAKGRFTVSKASSTTVTLQMTSLAVADTATYFCARNSGYGYFGLWGPGTLVTVSS VL: QVLTQTPSPVSAAVGGTVTISCQSTESVYGSDWLSWYQQKPGQPPKVLIYQASNLEIGVPSRFKGSGSGTQFTLTISGAQCDDAATYYCQGYYSGYIYAFGGGTEVVVK", "binds"]
]}
